# Tested on: foxtail, giant (giant foxtail, Setaria faberii)
# experiment_summary: Test A greenhouse herbicide test, pre- and postemergence
# Format: in vivo
# study_conditions: Postemergence, 500 g ai/ha; 0 to 100 scale, 0 is no effect, 100 is complete control
measure_name: Foxtail, Giant plant response rating

Give its Foxtail, Giant plant response rating value. Item: Cc1sc2ccccc2c1-c1c(OC(=O)OC(C)C)c(Cl)nn(C)c1=O
50

Query (compound): CC(=O)Oc1c(C)nn(C)c(=O)c1-c1c(C)sc2c(C)cc(C)cc12 ; field requested: Foxtail, Giant plant response rating
90

Which Foxtail, Giant plant response rating is listed for COc1nn(C)c(=O)c(-c2c(C)ccc3ccccc23)c1OC(=O)OC(C)C ?
90
